Source: ChEMBL document CHEMBL1154870

# System: HT-22
# Assay summary: Neuroprotective activity against glutamate-mediated oxidative stress-induced cell death in mouse HT22 cells assessed as survival at 10 uM after 24 hrs by MTT assay
# Format: functional
Exercise: state measured Efficacy for each of the compounds provided.
Field: numeric (%). Do not append units.

Efficacy for CC(C)c1ccc(CN2CCN(c3ccc([N+](=O)[O-])cc3)CC2)c(=O)c(O)c1 ?
91

Efficacy for Cc1c(C)c2c(c(C)c1O)CCC(C)(C(=O)NCCN1CCN(Cc3ccc(C(C)C)cc(O)c3=O)CC1)O2 (stereo not drawn) ?
89

Efficacy for CC(C)c1ccc(CN2CCN(Cc3ccc([N+](=O)[O-])cc3)CC2)c(=O)c(O)c1 ?
100

Efficacy for Cc1c(C)c2c(c(C)c1O)CCC(C)(C(=O)N1CCN(Cc3ccc(C(C)C)cc(O)c3=O)CC1)O2 (stereo not drawn) ?
62

Efficacy for COc1cc(C(C)C)ccc(Cn2cc(Cc3ccccc3)nn2)c1=O ?
30

Efficacy for CC(C)c1cccc(=O)c(O)c1 ?
62

Efficacy for CCOC(=O)N1CCN(Cc2ccc(C(C)C)cc(O)c2=O)CC1 ?
88

Efficacy for CC(C)c1ccc(CN2CCOCC2)c(=O)c(O)c1 ?
87

###

# System: HT-22
# Assay summary: Neuroprotective activity against glutamate-mediated oxidative stress-induced cell death in mouse HT22 cells assessed as survival after 24 hrs by MTT assay
# Assay type: functional, cell-based
# Measurement conditions: ht-22
Metric: EC50 (nM)
Field: numeric (nM). Do not append units.

Form entry - test system: HT-22; read-out: EC50; substance: VITAMIN E
200
